B1: Tyrosine-protein kinase BTK, residues 215 to 273; numbered along this chain, Q06187 (parent)
chain: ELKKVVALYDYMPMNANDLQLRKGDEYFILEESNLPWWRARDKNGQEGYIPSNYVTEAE

# Variants of: B1
# Experiment Summary: abundance fitness (aPCA) (normalised: wild type 0, dead -1); higher = more abundant; growth selection in yeast, the domain comes from the species named
# Details: Homo sapiens
Reported abundance fitness values are given for each entry in this list.
Kindly provide the number alone.

Answered cases to consult:
N17Q: 0.033
N34L: 0.033
W38F: -0.031

*Q* I'd like to know its abundance fitness. The variant in question is S52G
*A* -0.028

*Q* I'd like to know its abundance fitness. The variant in question is L19P
*A* -0.515

*Q* I'd like to know its abundance fitness. The variant in question is E47T
*A* -0.061
